This collection of values is drawn from ChEMBL document CHEMBL2413072.

tested on: OVCAR-5; assay: Growth inhibition of human OVCAR5 cells assessed as cell growth at 10 uM by sulforhodamine B assay; assay type: functional; details: read-out: Activity
endpoint-label: growth at 10 µM (%)
Number in %, nothing else.

Study these solved cases before continuing.
CC1(C)C[C@@H](O)[C@]2(C(=O)O)CC[C@]3(C)C(=CC[C@@H]4[C@@]5(C)CC[C@H](O)C(C)(C)[C@@H]5CC[C@]43C)[C@@H]2C1	119
CC1(C)C[C@@H](O)[C@]2(C(=O)O)CC[C@]3(C)C(=CC[C@@H]4[C@@]5(C)CCC(=O)C(C)(C)[C@@H]5CC[C@]43C)[C@@H]2C1	108
CC(C)=CC(=O)O[C@@H]1CC(C)(C)C[C@H]2C3=CC[C@@H]4[C@@]5(C)CC[C@H](O)C(C)(C)[C@@H]5CC[C@@]4(C)[C@]3(C)CC[C@@]12C(=O)O	119

q: What does the record list as growth at 10 µM for CC1(C)C[C@@H](O)[C@]2(C(=O)O)CC[C@]3(C)C(=CC[C@@H]4[C@@]5(C)C/C(=C\C=C\c6ccccc6)C(=O)C(C)(C)[C@@H]5CC[C@]43C)[C@@H]2C1 ?
a: 104

q: What does the record list as growth at 10 µM for C/C=C(/C)C(=O)O[C@@H]1CC(C)(C)C[C@H]2C3=CC[C@@H]4[C@@]5(C)CC[C@H](O)C(C)(C)[C@@H]5CC[C@@]4(C)[C@]3(C)CC[C@@]12C(=O)O ?
a: 64

q: What does the record list as growth at 10 µM for C/C=C(/C)C(=O)O[C@@H]1CC(C)(C)C[C@H]2C3=CC[C@@H]4[C@@]5(C)CCC(=O)C(C)(C)[C@@H]5CC[C@@]4(C)[C@]3(C)CC[C@@]12C(=O)O ?
a: 92.4

q: What does the record list as growth at 10 µM for CC(C)=CC(=O)O[C@@H]1CC(C)(C)C[C@H]2C3=CC[C@@H]4[C@@]5(C)CCC(=O)C(C)(C)[C@@H]5CC[C@@]4(C)[C@]3(C)CC[C@@]12C(=O)O ?
a: 96.3

q: What does the record list as growth at 10 µM for COc1cc(/C=C2\C[C@]3(C)[C@H]4CC=C5[C@@H]6CC(C)(C)C[C@@H](O)[C@]6(C(=O)O)CC[C@@]5(C)[C@]4(C)CC[C@H]3C(C)(C)C2=O)ccc1O ?
a: 105
